Data credit: patent US10899774B2

measured.on: human IRAK4 (Homo sapiens (Human), UniProt Q9NWZ3)
Sequence (Q9NWZ3 whole entry): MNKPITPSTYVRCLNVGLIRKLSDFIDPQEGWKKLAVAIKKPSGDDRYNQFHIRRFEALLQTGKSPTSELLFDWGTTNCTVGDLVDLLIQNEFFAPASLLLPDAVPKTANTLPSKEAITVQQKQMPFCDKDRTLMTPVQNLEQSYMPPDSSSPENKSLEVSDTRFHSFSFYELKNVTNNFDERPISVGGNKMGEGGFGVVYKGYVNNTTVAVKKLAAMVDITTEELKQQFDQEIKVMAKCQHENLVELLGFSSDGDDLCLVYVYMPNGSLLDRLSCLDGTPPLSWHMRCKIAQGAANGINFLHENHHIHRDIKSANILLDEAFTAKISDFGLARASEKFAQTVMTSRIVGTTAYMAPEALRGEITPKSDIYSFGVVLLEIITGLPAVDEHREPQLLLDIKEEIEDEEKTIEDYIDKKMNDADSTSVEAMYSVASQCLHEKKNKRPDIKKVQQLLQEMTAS
protocol.summary: IRAK4 kinase inhibition, Transcreener fluorescence polarization (ADP detection)
test.conditions: recombinant full-length His6-IRAK4; 1.25 nM IRAK4; 125 μM ATP; 90 min; ATP Km 642 μM
Where a name gives a salt, the structure may show the parent alone.
reported.property: pKi
In simple prose, pKi is minus the logarithm base ten of a concentration in moles per litre.

Sample records with pKi:
>>> test_result("CC1(C)Cc2cc(NC(=O)c3ccn(-c4ccnc(C#N)c4)n3)c(N3CCOCC3)cc2O1 [Example 63]")
7.80
>>> test_result("CC1(CO)Cc2cc(NC(=O)c3csc4cc(C#N)cnc34)c(N3CCOCC3)cc2O1 (stereo not shown) [Example 69, Formate]")
7.55

Summary: C[C@]1(CO)Cc2cc(NC(=O)c3ccc4cccnn34)c(N3CCOCC3)cc2O1 (single isomer, unassigned) [Example 19] , human IRAK4 (Homo sapiens (Human), UniProt Q9NWZ3), pKi = 7.68

Summary: CC1(C)Cc2cc(NC(=O)c3cnn4c3OCCC4)c(N3CCOCC3)cc2O1 [Example 1] , human IRAK4 (Homo sapiens (Human), UniProt Q9NWZ3), pKi = 7.17
